Assay: in vitro
Set-up: Viability of infected HeLa host cells, resazurin conversion, bulk resorufin fluorescence relative to DMSO
Details: human, hela cells; bulk resorufin, mean of 3
resultType: viability at 28.5 h, 3 µM (%)
Give the number; % is assumed, so skip it.

Below: 6 compounds and their reported viability at 28.5 h, 3 µM.
compound	resultType	observedMeasurement
Oc1c(CN2CCN(c3ccc(F)cc3)CC2)cc(Br)c2cccnc12 [c43e]	viability at 28.5 h, 3 µM	88.5
CCCCc1ccc(Nc2csc(N)n2)cc1 [c11e]	viability at 28.5 h, 3 µM	92.4
FC(F)(F)CCN1CCC2(CC1)NCCc1c2[nH]c2ccc(Cl)cc12 [c34e]	viability at 28.5 h, 3 µM	88.3
COc1c(Br)cc2c(cc(C)n2-c2ccccc2)c1OCC(O)CNC(C)C (stereo not shown) [c5e]	viability at 28.5 h, 3 µM	89.5
CCC(c1ccc(F)cc1)N(C)C(=O)Cn1cc(C(=O)NC2CCCCC2)ccc1=O (stereo not shown) [c44e]	viability at 28.5 h, 3 µM	87.9
CCCN(CCC)CCc1cccc2c1CCN2C(=O)c1cc2ccccc2s1 [c15e]	viability at 28.5 h, 3 µM	91.2

Now look at this one.
Need viability at 28.5 h, 3 µM, item O=C(N/N=C/c1ccc(Sc2cccc3cccnc23)o1)c1cccc(F)c1 [c10e]
89.3

###

As shown below, each of these compounds has a reported viability at 28.5 h, 10 µM value.
Assay: in vitro
Details: human, hela cells, % viability
I only need the number, in %, no unit after it.

inputSmiles	resultType	observedMeasurement
O=C(NNC(=O)c1ccccc1C(=O)O)c1cccc(Cl)c1	viability at 28.5 h, 10 µM	94.7
CCOc1ccc(Oc2ccc(C(F)(F)F)cc2NC(=O)CCCC(=O)O)cc1	viability at 28.5 h, 10 µM	90.7

Field request: viability at 28.5 h, 10 µM | item: CN1CCCN(c2cncc(-c3cccc(OC(F)(F)F)c3)n2)CC1
102

###

Assay: in vitro
Details: human, hela cells, % viability
Some compounds, each annotated with its measured viability at 28.5 h, 10 µM.
# value in %; strip the unit string

Some compounds with recorded viability at 28.5 h, 10 µM:
compound	viability at 28.5 h, 10 µM [%]
Cc1ccc(S(=O)(=O)Oc2ccc(C(c3c(C)n[nH]c3O)c3c(C)n[nH]c3O)cc2)cc1	104
Cc1c(C(=O)N2CCC(F)(CO)C2)nnn1-c1ccc2ncccc2c1 (stereo not drawn)	101

Given the compound CC(C)(C)c1cc(N2C(=O)C(O)=C(C(=O)c3ccc(Cl)cc3)C2c2cccc([N+](=O)[O-])c2)no1 (stereo not drawn) , what is its reported viability at 28.5 h, 10 µM?
92.8

I'd like to know its viability at 28.5 h, 10 µM. The compound in question is Cc1cc(O)n2nc(CC(=O)NCCCn3c(C)cccc3=O)nc2n1
97.1

State the recorded viability at 28.5 h, 10 µM for this entry: CCCc1c(OCCCCc2nnn[nH]2)ccc(C(C)=O)c1O
90.4

Look up viability at 28.5 h, 10 µM: O=C(O)c1cccc(-c2ccc(/C=C\c3nc(O)c([N+](=O)[O-])c(=O)[nH]3)o2)c1
96.9

Using the record for COc1ccc(Br)cc1C(=O)NCC1(c2ccccc2)CCOCC1 , report its viability at 28.5 h, 10 µM.
82.7

Entry CN(CC(=O)NCc1ccc(Cl)cc1)S(=O)(=O)Cc1ccc(C#N)cc1 has what viability at 28.5 h, 10 µM?
92.3

Using the record for O=S(=O)(CC(CN1CCCCC1)N1CCCCC1)c1ccc2ccccc2c1 (stereo not drawn) , report its viability at 28.5 h, 10 µM.
100

###

Measured viability at 28.5 h, 10 µM values are reported for all entries that follow.
Experiment: in vitro
Settings: human, hela cells, % viability
Give the figure together with its unit, number first.

Consider the reported viability at 28.5 h, 10 µM for these molecules:
molecule	viability at 28.5 h, 10 µM
CCNC(=O)NC[C@H]1C[C@@H]2CCN1C[C@@H]2c1cc(-c2ccccc2OC)nn1C [CBK289105]	118%
C=C(C)CN1CCN(C(=O)c2c(C)oc3ccc(O)cc23)CC1 [CBK282626]	95%
CC(=O)Nc1ccc(S(=O)(=O)N2CCN(c3cc4c(cc3[N+](=O)[O-])n(C)c(=O)n4C)CC2)cc1 [CBK267338]	91.9%
CN(CC1COCCO1)C(=O)c1cc(Cn2ccc3ccccc32)[nH]n1 (stereo not shown) [CBK307673]	111%

Need viability at 28.5 h, 10 µM of NS(=O)(=O)c1ccc(Cl)c(Cl)c1 [CBK015652] , thanks.
118%

Look at this molecule and give its reported viability at 28.5 h, 10 µM. Cc1[nH]nc(Nc2ccc(I)cc2)c1[N+](=O)[O-] [CBK262748]
86.2%

Looking for the measured viability at 28.5 h, 10 µM of NC(=O)c1cccc(OCCOc2nccnc2N2CCNCC2)c1 [CBK014338G] , can you help?
114%

Quick one: viability at 28.5 h, 10 µM of CCCNS(=O)(=O)c1cc2c3c(c1)c(C)cc(=O)n3CCC2 [CBK307547] ?
97.1%

Given the molecule O=C(CSc1nnc(-c2ccccc2)c(-c2ccccc2)n1)Nc1ccc(N2CCOCC2)cc1 [CBK269684] , what is its reported viability at 28.5 h, 10 µM?
89.7%

###

Assay: in vitro
Details: human, hela cells, % viability
resultType: viability at 28.5 h, 10 µM (%)
Answer with a number only, understood to be in %.

compound	resultType	displayUnit	observedMeasurement
COc1nccc(N2CCC3(CCCN(CC4CCC4)C3=O)C2)c1C#N (centres unmarked) [CBK306861]	viability at 28.5 h, 10 µM	%	84.3
Cc1cc2c(s1)c1cnn(CC(=O)NC(C)C)c(=O)c1n2C [CBK284155]	viability at 28.5 h, 10 µM	%	79.7

For the compound shown here, N=C(N)SCP(=O)(c1ccccc1)c1ccccc1 [CBK260990] , give the reported viability at 28.5 h, 10 µM.
99.3

Which viability at 28.5 h, 10 µM value belongs to COc1cc2c(cc1NS(=O)(=O)N1CCCCC1)oc1ccccc12 [CBK268355] ?
85.8

viability at 28.5 h, 10 µM lookup needed for CC(=O)Nc1ccc(NC(=O)/C=C/c2ccc(Cl)cc2)cc1 [CBK264766] , thanks.
116

Report viability at 28.5 h, 10 µM for O=C(NCc1ccccc1)C1CCCN(c2ncnc3[nH]cnc23)C1 (centres unmarked) [CBK287916] please.
91.4

Would you kindly share the measured viability at 28.5 h, 10 µM for CC(C)(C)C(C#N)C(Oc1ccc(Cl)cc1)n1cncn1 (centres unmarked) [CBK023570] ?
90.3

###

Tested on: CTL2-GFP (C. trachomatis L2/434/Bu, GFP-expressing)
Construct: L2/434/Bu, GFP-expressing
Assay: microbe, parasite or virus in culture
Design: Intracellular C. trachomatis growth in HeLa cells, bulk GFP fluorescence relative to DMSO
Conditions: Chlamydia trachomatis, HeLa, 28.5 h; bulk GFP, mean of 2; read-out: % of control remaining
resultType: activity at 1 µM (%)
Your answer is read as %, so omit the unit and give the number.

molecule	targetDesc	displayUnit	activity at 1 µM
COc1cc(N)c2ncccc2c1 [CBK011972C]	CTL2-GFP (C. trachomatis L2/434/Bu, GFP-expressing)	%	90.6

Field request: activity at 1 µM | item: COCC(=O)N[C@H]1C[C@H]2C(=O)Nc3ccc(/C=C/c4ccccc4)cc3C(=O)N2C1
87.5

Return reported activity at 1 µM; argument: Cc1ccc(S(=O)(=O)Nc2cc(SCC(=O)O)c(O)c3ccccc23)cc1
92.1

Fill blank: measured activity at 1 µM of the molecule CN1CCCN(c2ccc(NS(=O)(=O)c3cccc(F)c3)c3ccccc23)CC1 [CBK200010C] is ____.
108

Need activity at 1 µM of Cn1cncc1C(=O)NCc1ccccc1 , thanks.
95.8

###

Assay: in vitro
Conditions: human, hela cells, % viability
resultType: viability at 28.5 h, 10 µM

Consider the following illustrative entries.
compound	viability at 28.5 h, 10 µM
COc1ccc(-c2nnc(SC(C)C(=O)Nc3cc(C)no3)n2CC2CCCO2)cc1 (stereo not shown)	84.8%
CCN(CC)CCCNc1nccc(-c2cn(C)nc2C)n1	97.4%
Cn1ccc(C2CCCCCN2S(=O)(=O)c2ccc(F)cc2)n1 (stereo not shown)	98.8%

Switching to the query record.
I'd like to know its viability at 28.5 h, 10 µM. The compound in question is Cn1nnc2c(N3CCN(C(=O)c4ccccc4)CC3)ncnc21
90.6%

###

Assay: in vitro
Settings: human, hela cells, % viability
Below, each of the molecules is paired with its reported viability at 28.5 h, 10 µM value.
Value expressed in %; do not type the unit.

Solved entries:
molecule	displayUnit	viability at 28.5 h, 10 µM
COc1ccccc1CCNC(=O)c1ncoc1-c1cccs1	%	76.4
CS(=O)(=O)N(CC(=O)Nc1ccc(S(N)(=O)=O)cc1)Cc1ccc(Cl)cc1	%	98.8

// query viability at 28.5 h, 10 µM value for entry O=c1cc(O)c2ccccc2n1Cc1ccccc1F
86.3

For the molecule shown here, COc1ccc(-c2nc(-c3ccncc3)ncc2C(=O)NC2CCCCC2)cc1 , give the reported viability at 28.5 h, 10 µM.
95.4

Recorded viability at 28.5 h, 10 µM of CS(=O)(=O)c1ncc(Cl)c(C(=O)N(Cc2ccccc2)c2ccccn2)n1 , please.
95

Which measured viability at 28.5 h, 10 µM value corresponds to Cc1cc(C)c2oc(-c3ccc(C)c(NC(=O)COc4ccccc4C)c3)nc2c1 ?
103

Which viability at 28.5 h, 10 µM reading was recorded for the molecule O=C1NC(c2cccnc2)Nc2sc3c(c21)CCCC3 (stereo not shown) ?
103

Hey, just so you know, these numbers are from paper PMC12040169.
